target: Protein kinase C beta type (Homo sapiens)
Sequence (P05771 whole entry): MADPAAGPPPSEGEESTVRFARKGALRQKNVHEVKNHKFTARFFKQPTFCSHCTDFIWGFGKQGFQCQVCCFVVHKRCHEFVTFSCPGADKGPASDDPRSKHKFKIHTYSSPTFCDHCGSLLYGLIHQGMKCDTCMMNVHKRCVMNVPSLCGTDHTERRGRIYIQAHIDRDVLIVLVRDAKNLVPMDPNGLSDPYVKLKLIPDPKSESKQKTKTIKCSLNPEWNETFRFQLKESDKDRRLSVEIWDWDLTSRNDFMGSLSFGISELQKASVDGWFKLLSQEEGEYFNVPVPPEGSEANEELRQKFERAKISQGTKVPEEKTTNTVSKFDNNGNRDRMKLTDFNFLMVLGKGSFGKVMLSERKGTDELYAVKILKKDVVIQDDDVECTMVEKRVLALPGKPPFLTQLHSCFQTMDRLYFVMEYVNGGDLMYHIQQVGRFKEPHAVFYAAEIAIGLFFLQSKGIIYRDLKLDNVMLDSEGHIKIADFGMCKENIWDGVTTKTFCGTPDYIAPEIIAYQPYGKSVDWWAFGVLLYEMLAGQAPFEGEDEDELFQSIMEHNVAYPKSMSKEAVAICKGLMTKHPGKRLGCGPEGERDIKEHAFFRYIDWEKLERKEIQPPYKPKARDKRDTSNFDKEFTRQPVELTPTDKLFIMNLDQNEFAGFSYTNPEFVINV
measured parameter: IC50 (nM)
All answers are understood in nM, so give the number only.

molecule	units	IC50
O=C1NC(=O)C2=C1c1cn(c3ccccc13)CCOCCOCCOCCn1cc2c2cccnc21 [INDOLYLYLMALEIMIDE 1]	nM	46

Moving on to another molecule below.
Ask: What measured IC50 goes with O=C1NC(=O)C2=C1c1cn(c3ccccc13)CCOCCOCCOCCn1cc2c2ccccc21 [INDOLYLYLMALEIMIDE 2] ?
Reply: 6

* * *

Entries and their pIC50
target: Protein kinase C alpha type (Homo sapiens); assay: Inhibition of Protein kinase C alpha
# pIC50 is unitless: minus log10 of the molar concentration; print number only

compound	assayed system	reading
O=C1NC(=O)C2=C1c1cn(c3ccccc13)CCOCCOCCOCCn1cc2c2cccnc21 [INDOLYLYLMALEIMIDE 1]	Protein kinase C alpha type (Homo sapiens)	6.17

Moving on to another compound below.
Ask: Item O=C1NC(=O)C2=C1c1cn(c3ccccc13)CCOCCOCCOCCn1cc2c2ccccc21 [INDOLYLYLMALEIMIDE 2] with Protein kinase C alpha type (Homo sapiens) - pIC50?
Reply: 7.07

* * *

pIC50 data for UniProt P06493 follow.
Sequence (P06493 whole entry): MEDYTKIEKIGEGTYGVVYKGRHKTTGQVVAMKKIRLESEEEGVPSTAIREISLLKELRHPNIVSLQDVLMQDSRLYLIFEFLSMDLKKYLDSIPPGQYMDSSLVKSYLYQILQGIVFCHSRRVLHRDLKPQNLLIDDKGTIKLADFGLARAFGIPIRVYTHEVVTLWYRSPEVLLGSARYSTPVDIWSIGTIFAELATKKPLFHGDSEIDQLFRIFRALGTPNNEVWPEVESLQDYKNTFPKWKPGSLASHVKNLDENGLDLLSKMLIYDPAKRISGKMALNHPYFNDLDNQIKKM
# pIC50 is unitless: minus log10 of the molar concentration; print number only

molecule	assayed system	measured parameter	reading
O=C1NC(=O)C2=C1c1cn(c3ccccc13)CCOCCOCCOCCn1cc2c2ccccc21 [INDOLYLYLMALEIMIDE 2]	UniProt P06493	pIC50	5.90

Ask: Item O=C1NC(=O)C2=C1c1cn(c3ccccc13)CCOCCOCCOCCn1cc2c2cccnc21 [INDOLYLYLMALEIMIDE 1] with UniProt P06493 - pIC50?
Reply: 5.35

* * *

target: Protein kinase C theta type (Homo sapiens, UniProt Q04759)
Sequence (Q04759 whole entry): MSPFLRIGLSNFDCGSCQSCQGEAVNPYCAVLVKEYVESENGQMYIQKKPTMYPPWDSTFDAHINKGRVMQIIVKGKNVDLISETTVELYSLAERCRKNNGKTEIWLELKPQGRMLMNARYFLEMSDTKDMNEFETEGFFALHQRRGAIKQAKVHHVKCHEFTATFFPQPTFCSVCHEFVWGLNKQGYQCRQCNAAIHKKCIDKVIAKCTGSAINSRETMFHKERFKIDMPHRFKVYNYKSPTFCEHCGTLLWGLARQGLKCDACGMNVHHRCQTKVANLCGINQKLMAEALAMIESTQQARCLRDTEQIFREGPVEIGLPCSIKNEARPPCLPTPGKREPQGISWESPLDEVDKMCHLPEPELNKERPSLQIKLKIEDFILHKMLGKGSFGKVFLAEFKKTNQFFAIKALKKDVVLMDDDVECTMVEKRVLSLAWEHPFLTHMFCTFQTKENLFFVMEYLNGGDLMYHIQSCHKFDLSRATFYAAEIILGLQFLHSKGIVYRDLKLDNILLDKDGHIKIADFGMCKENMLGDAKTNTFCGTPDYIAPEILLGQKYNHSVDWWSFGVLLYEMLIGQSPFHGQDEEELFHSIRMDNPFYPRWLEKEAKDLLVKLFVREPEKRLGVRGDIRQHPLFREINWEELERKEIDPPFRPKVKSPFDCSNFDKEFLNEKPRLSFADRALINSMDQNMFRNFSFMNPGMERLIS
measured parameter: pIC50
# pIC50 is unitless: minus log10 of the molar concentration; print number only

molecule	reading
O=C1NC(=O)C2=C1c1cn(c3ccccc13)CCOCCOCCOCCn1cc2c2ccccc21 [INDOLYLYLMALEIMIDE 2]	7.19

Moving on to another molecule below.
Ask: What measured pIC50 goes with O=C1NC(=O)C2=C1c1cn(c3ccccc13)CCOCCOCCOCCn1cc2c2cccnc21 [INDOLYLYLMALEIMIDE 1] ?
Reply: 6.08

* * *

IC50 data for UniProtKB P24941 follow.
All answers are understood in nM, so give the number only.

compound	IC50 [nM]
O=C1NC(=O)C2=C1c1cn(c3ccccc13)CCOCCOCCOCCn1cc2c2cccnc21 [INDOLYLYLMALEIMIDE 1]	2440

Ask: What measured IC50 goes with O=C1NC(=O)C2=C1c1cn(c3ccccc13)CCOCCOCCOCCn1cc2c2ccccc21 [INDOLYLYLMALEIMIDE 2] ?
Reply: 992

* * *

Entries and their pIC50
experiment: Inhibition of Vascular endothelial growth factor receptor 2; parameters: species or system Homo sapiens
# pIC50 is unitless: minus log10 of the molar concentration; print number only

molecule	pIC50
O=C1NC(=O)C2=C1c1cn(c3ccccc13)CCOCCOCCOCCn1cc2c2cccnc21 [INDOLYLYLMALEIMIDE 1]	5.45

Moving on to another molecule below.
Ask: What measured pIC50 goes with O=C1NC(=O)C2=C1c1cn(c3ccccc13)CCOCCOCCOCCn1cc2c2ccccc21 [INDOLYLYLMALEIMIDE 2] ?
Reply: 5.84
